System: MKL-1
TEST DETAILS: qHTS assay to identify novel small-molecules to repurpose for Merkel cell carcinoma treatment (AID 1296009); also: nearly all actives have a fitted effect of over 60% in size
CONDITION SUMMARY: MCC and control cell lines, CellTiter-Glo viability, 72 h; series mostly up to 46 µM
Records with an inconclusive call do not appear. Activity calls are given as the source filed them. Calls follow the shape of the dose curve; as a rule, active = well fitted inhibition curve with a large enough effect; inconclusive = small, poorly fitted or top-dose-only effect; inactive = flat fitted curve, though single readings scatter.
Respond only with the outcome that fits, drawn from active, inactive

Illustrative cases are given below, each with its answer.
COMPOUND: COC1=CC(C)=C[C@@H](C)[C@@H](O)[C@@H](C)CC(C)=CC=C[C@H](OC)[C@H]([C@@H](C)[C@@H](O)[C@H](C)[C@@]2(O)C[C@@H](O)[C@H](C)[C@@H](C(C)C)O2)OC1=O
LABEL CLASS: active
//
COMPOUND: CC[C@H]1C=CC=CC[C@@H](C)[C@H](O)[C@@](C)(O)C(=O)[C@@H](C)[C@H](O)[C@@H](C)C(=O)[C@@H](C)[C@H](O)[C@@H](C)C=CC(=O)O[C@@H]2[C@@H](C)[C@H](CC1)O[C@]1(CC[C@H](C)[C@H](C[C@@H](C)O)O1)[C@H]2C
LABEL CLASS: active

Enquiry: For `C1CCC(NC2CCCCC2)CC1` , what call appears in the results of this test?
Return: inactive

Enquiry: For NC1=NC(=O)N2CC12 (centres undefined) , what call appears in the results of this test?
Return: inactive

Enquiry: For CC(C)NCC(O)c1ccc([N+](=O)[O-])cc1 (centres undefined) , what call appears in the results of this test?
Return: inactive

---

TEST DETAILS: qHTS for Inhibitors of the Functional Ribonucleoprotein Complex (vRNP) of Lassa (LASV) Arenavirus: LASV Primary Screen - GLuc reporter signal (AID 1347082); also: nearly all actives have a fitted effect of over 60% in size
CONDITION SUMMARY: LASV minigenome vRNP, Gaussia luciferase reporter; series mostly up to 57.5 µM
Inconclusive results are not listed. Calls of active or inactive are those of the source. The call rests on the fitted dose curve; tested in HEK293 reporter line.
Respond only with the outcome that fits, drawn from 1 = active, 0 = inactive

Enquiry: For `ClC1=C(Cl)[C@]2(Cl)[C@@H]3[C@@H]4C[C@@H]([C@H]5O[C@@H]45)[C@@H]3[C@@]1(Cl)C2(Cl)Cl` , what call appears in the results of this test?
Return: 0

Enquiry: For `CCn1cc(C(=O)O)c(=O)c2cc3c(cc21)OCO3` , what call appears in the results of this test?
Return: 0

---

TEST DETAILS: qHTS of pediatric cancer cell lines to identify multiple opportunities for drug repurposing: Confirmatory screen for Rh41 cells (AID 1347123);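 also: 48 h compound exposure; nearly all actives have a fitted effect of over 60% in size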
CONDITION SUMMARY: Rh41 rhabdomyosarcoma cells, viability/cytotoxicity qHTS; series mostly up to 45.9 µM
Records with an inconclusive call do not appear. The source made the active and inactive calls. Calls come from the whole dose curve; as a rule, active = well fitted cell-killing curve with a large enough effect; inconclusive = small, poorly fitted or top-dose-only effect; inactive = no such curve, though single readings can be large or run the other way.
Respond only with the outcome that fits, drawn from 1 (active), 0 (inactive)

Illustrative cases are given below, each with its answer.
MOLECULE: CC(=Cc1csc(C)n1)[C@@H]1C[C@H]2O[C@@H]2CCC[C@H](C)[C@@H](O)[C@@H](C)C(=O)C(C)(C)[C@@H](O)CC(=O)O1
LABEL CLASS: 1

MOLECULE: C[C@@]12OC(=O)[C@]1([C@@H](O)[C@@H]1C=CCCC1)NC(=O)[C@H]2CCCl
LABEL CLASS: 1

MOLECULE: O=C(O)COc1nc(Cl)c(Cl)cc1Cl
LABEL CLASS: 0

MOLECULE: Cc1c(N)nc([C@H](CC(N)=O)NC[C@@H](N)C(N)=O)nc1C(=O)N[C@H](C(=O)N[C@@H](C)[C@H](O)[C@@H](C)C(=O)N[C@@H](C(=O)NCCc1nc(-c2nc(C(=O)NCCC[S+](C)C)cs2)cs1)[C@@H](C)O)C(O[C@H]1O[C@H](CO)[C@H](O)[C@@H](O)[C@@H]1O[C@H]1O[C@H](CO)[C@@H](O)[C@H](OC(N)=O)[C@H]1O)c1cnc[nH]1 (stereo partly specified)
LABEL CLASS: 0

MOLECULE: C[C@]12Cc3cn[nH]c3C[C@@H]1CC[C@@H]1[C@H]2CC[C@@]2(C)[C@H]1CC[C@]2(C)O
LABEL CLASS: 0

From here, focus on the item given below.
Enquiry: For `CC[C@@]1(O)C(=O)OCc2c1cc1n(c2=O)Cc2cc3ccccc3nc2-1` , what call appears in the results of this test?
Return: 1

---

Test system: Zika virus NS2B-NS3 protease
TEST DETAILS: Primary screen GU AMC qHTS for Zika virus inhibitors (AID 1347154);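 also: 0% = no-inhibitor control and -100% = no-enzyme control; nearly all actives have a fitted effect of over 70% in size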
CONDITION SUMMARY: Zika NS2B-NS3 unlinked protease, AMC fluorogenic substrate; series mostly up to 54.1 µM
Records with an inconclusive call do not appear. Activity calls are given as the source filed them. Calls come from the whole dose curve; as a rule, active = well fitted inhibition curve with a large enough effect; inconclusive = small, poorly fitted or top-dose-only effect; inactive = flat fitted curve, though single readings scatter.
Respond only with the outcome that fits, drawn from 1 (yes) for active, 0 (no) for inactive

Illustrative cases are given below, each with its answer.
COMPOUND: CC[C@@H](C(N)=O)N1CCCC1=O
SYSTEM TESTED: Zika virus NS2B-NS3 protease
LABEL CLASS: 0 (no)
//
COMPOUND: O=C1CCC[C@@H]2[C@H]3CCCN4CCC[C@@H](CN12)[C@@H]34
SYSTEM TESTED: Zika virus NS2B-NS3 protease
LABEL CLASS: 0 (no)
//
COMPOUND: c1cc2c(cc1[C@H]1OC[C@H]3[C@H]1CO[C@H]3c1ccc3c(c1)OCO3)OCO2
SYSTEM TESTED: Zika virus NS2B-NS3 protease
LABEL CLASS: 0 (no)
//
COMPOUND: CCC(=O)O[C@@H]1C=C2CCC3C(CCC4(C)C3CC[C@@H]4OC(=O)CC)C2CC1 (stereo not given in full)
SYSTEM TESTED: Zika virus NS2B-NS3 protease
LABEL CLASS: 0 (no)
//
COMPOUND: Cc1nc(-c2ccc(-c3ccc(C(=O)N4CCc5cc6c(cc54)C4(CCN(C)CC4)CO6)cc3)c(C)c2)no1
SYSTEM TESTED: Zika virus NS2B-NS3 protease
LABEL CLASS: 0 (no)

Enquiry: For CC(=CCCC1=CCC(C2=CC(=O)OC2O)OC1O)CCC1=C(C)CCCC1(C)C (stereo not given) , what call appears in the results of this test?
Return: 0 (no)

Enquiry: For `O=[N+]([O-])c1c2ccccc2cc2ccccc12` , what call appears in the results of this test?
Return: 0 (no)

Enquiry: For `O=[N+]([O-])c1c(Cl)c(Cl)cc(Cl)c1Cl` , what call appears in the results of this test?
Return: 0 (no)

Enquiry: For `CCCCOC(=O)c1ccccc1C(=O)OCc1ccccc1` , what call appears in the results of this test?
Return: 0 (no)

Enquiry: For `C[C@]12COC(=O)C[C@@H]1CC[C@@H]1[C@H]2CC[C@@]2(C)[C@H]1CC[C@]2(C)O` , what call appears in the results of this test?
Return: 0 (no)

Enquiry: For `CSCC[C@@H](NC(=O)[C@@H](Cc1ccccc1)NC(=O)CNC(=O)CNC(=O)[C@@H](N)Cc1ccc(O)cc1)C(=O)O` , what call appears in the results of this test?
Return: 0 (no)

---

TEST DETAILS: Quantitative High-Throughput drug screen in 47 multiple myeloma cell lines against the NCATS MIPE library collection: OPM2_DSMZ cell viability assay (AID 1919872); also: nearly all actives have a fitted effect of over 30% in size
CONDITION SUMMARY: OPM2 myeloma viability, CellTiter-Glo ATP luminescence, 48 h; series mostly up to 45.8 µM
Records with an inconclusive call do not appear. The source made the active and inactive calls. Calls follow the shape of the dose curve; as a rule, active = well fitted cell-killing curve with a large enough effect; inconclusive = small, poorly fitted or top-dose-only effect, or effect the other way; inactive = no such curve, though single readings can be large or run the other way.
Respond only with the outcome that fits, drawn from active, inactive

CHEMICAL STRING: CC(=O)OCC1=C(C(=O)O)N2C(=O)[C@@H](N)[C@@H]2SC1
LABEL CLASS: inactive
--
CHEMICAL STRING: CCOC(=O)c1c(C(C#N)=CN)c2ccc(Cl)c(Cl)c2n1C
LABEL CLASS: inactive
--
CHEMICAL STRING: O=c1cccc2n1CC1CNC[C@H]2C1
LABEL CLASS: inactive

From here, focus on the item given below.
Enquiry: For `C[C@@H]1CC[C@@]2(OC1)O[C@H]1C[C@H]3[C@@H]4CC=C5C[C@@H](O[C@@H]6O[C@H](CO)[C@@H](O[C@@H]7O[C@@H](C)[C@H](O)[C@@H](O)[C@@H]7O)[C@H](O)[C@@H]6O[C@@H]6O[C@@H](C)[C@H](O)[C@@H](O)[C@@H]6O)CC[C@]5(C)[C@@H]4CC[C@]3(C)[C@@H]1[C@H]2C` , what call appears in the results of this test?
Return: active

---

TEST DETAILS: Cytotoxicity counterscreen for inhibitors of SARS-CoV-2 cell entry (AID 1645845); also: nearly all actives have a fitted effect of over 50% in size
CONDITION SUMMARY: cell viability (SARS-CoV-2 entry assay cells); series mostly up to 57.1 µM
Inconclusive results are not listed. Active and inactive are the calls of the source. Calls come from the whole dose curve.
Respond only with the outcome that fits, drawn from active, inactive

Illustrative cases are given below, each with its answer.
MOLECULE: COc1ccccc1[C@H](c1cccc2ccccc12)[C@@](C)(C#N)C(=O)N1CCC(c2cccc(C(F)(F)F)c2)CC1
LABEL CLASS: inactive

MOLECULE: CC(=O)Nc1ccc(O)cc1
LABEL CLASS: inactive

MOLECULE: CCNC(=O)c1noc(-c2cc(C(C)C)c(O)cc2O)c1-c1ccc(CN2CCOCC2)cc1
LABEL CLASS: inactive

MOLECULE: CC(C)(N)C(=O)N[C@H](COCc1ccccc1)C(=O)N1CCC2(CC1)CN(S(C)(=O)=O)c1ccccc12
LABEL CLASS: inactive

MOLECULE: C[C@@H]1CN(CC(=O)Nc2ccc3c(c2)Cc2cccc(-c4cc(=O)cc(N5CCOCC5)o4)c2S3)C[C@H](C)O1
LABEL CLASS: active

Enquiry: For `O=c1cccc2n1CC1CNC[C@H]2C1` , what call appears in the results of this test?
Return: inactive

Enquiry: For `Fc1cc(-c2cccc3ncc(-c4cnn(C5CCNCC5)c4)nc23)cc(F)c1CN1CCOCC1` , what call appears in the results of this test?
Return: active

Enquiry: For `COc1cc(Nc2ncc(F)c(Nc3ccc4c(n3)NC(=O)C(C)(C)O4)n2)cc(OC)c1OC` , what call appears in the results of this test?
Return: inactive

Enquiry: For `NCCS` , what call appears in the results of this test?
Return: inactive

Enquiry: For `Cc1cccc(-c2[nH]c(C(C)(C)C)nc2-c2ccc3nccnc3c2)n1` , what call appears in the results of this test?
Return: inactive

Enquiry: For c1ccc(C2(c3ccccc3)CC2C2=NCCN2)cc1 (stereo not given) , what call appears in the results of this test?
Return: inactive

Enquiry: For `N#CCNC(=O)c1ccc(-c2ccnc(Nc3ccc(N4CCOCC4)cc3)n2)cc1` , what call appears in the results of this test?
Return: active

Enquiry: For `Cc1cc(SCc2sc(-c3ccc(C(F)(F)F)cc3)nc2C)ccc1OCC(=O)O` , what call appears in the results of this test?
Return: inactive

Enquiry: For `C=C1C(=CC=C2CCC[C@]3(C)[C@@H]([C@H](C)C=C[C@H](C)C(C)C)CC[C@@H]23)C[C@@H](O)C[C@@H]1O` , what call appears in the results of this test?
Return: inactive

Enquiry: For `Cc1nc(N)sc1-c1ccnc(Nc2ccc(N3CCOCC3)cc2)n1` , what call appears in the results of this test?
Return: active

Enquiry: For `CCOC(=O)[C@@H](N)CCC(=O)N[C@@H](CSCc1ccccc1)C(=O)N[C@@H](C(=O)OCC)c1ccccc1` , what call appears in the results of this test?
Return: inactive
